# assay.overview: soluble fraction after stress (log2 fold change); higher = more stays soluble; pooled small domains, quantitative proteomics;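 also: 20 min heating vs room temperature control held 20 min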
# assay.context: stress: 75 degC
Cut-off -0.3 on soluble fraction (log2), inclusive. At or above means satisfied; below means not satisfied.

> print(dat)
                            sequence.record  qualitative.label
1  HMSNNENSILEKLNSFSGKKIKVSHTIGSLAARLDEYPKIKMWLYKRIRENSINEQAYKYLIFIIERKVR      not satisfied
2  HMSPLALLTPRELDILRAMTAGASNKEIARQFAIAETTVKIHVQHILRKLDVTTRVHAAVMASESGL      not satisfied
3  HMYMKTITEQFGERLKKIRTQKSLSQEQLSYLADIDRSYISDVERGARNISLENIYKLASALNIPPYLVLL      not satisfied
4  HMNSISDSELKALIKNNYLKFLKRIASDEEIEYHFNQIKNKTILLDELDSIFQNSQEYKDLVEHNNKIQN          satisfied
5  HMADLNQTDIDSITKSVGGVEQYKSLMDWAGKTLSQDAIDSFDDLVNTGNKGSIQLAVNGLVAQYQNDN          satisfied
6  HMSHGNAALTPRQRLRLARLVVDDQWSVSAAAEFFRVSYPTAAKWARRYVELGPAGMADRSS      not satisfied
7  HMQVEMVLSQEAHEWLLQRGFIPEYGAREMDRVIAAHLKPLLMREILFGTLKAGGKVRVQVENGALKLQP      not satisfied

Incoming: Does the sequence `HMDTRKKLEQIFKLFDKTGTGMVNIDEFKSVLKLFMEEIDEKFGNYFIAYFDENGDGKIEFEEFADVVL` have recorded soluble fraction (log2) that is -0.3 or more?
Outgoing: not satisfied
